# Study system: Nitric oxide synthase, inducible (Homo sapiens)
# Sequence (P35228 whole entry, canonical isoform): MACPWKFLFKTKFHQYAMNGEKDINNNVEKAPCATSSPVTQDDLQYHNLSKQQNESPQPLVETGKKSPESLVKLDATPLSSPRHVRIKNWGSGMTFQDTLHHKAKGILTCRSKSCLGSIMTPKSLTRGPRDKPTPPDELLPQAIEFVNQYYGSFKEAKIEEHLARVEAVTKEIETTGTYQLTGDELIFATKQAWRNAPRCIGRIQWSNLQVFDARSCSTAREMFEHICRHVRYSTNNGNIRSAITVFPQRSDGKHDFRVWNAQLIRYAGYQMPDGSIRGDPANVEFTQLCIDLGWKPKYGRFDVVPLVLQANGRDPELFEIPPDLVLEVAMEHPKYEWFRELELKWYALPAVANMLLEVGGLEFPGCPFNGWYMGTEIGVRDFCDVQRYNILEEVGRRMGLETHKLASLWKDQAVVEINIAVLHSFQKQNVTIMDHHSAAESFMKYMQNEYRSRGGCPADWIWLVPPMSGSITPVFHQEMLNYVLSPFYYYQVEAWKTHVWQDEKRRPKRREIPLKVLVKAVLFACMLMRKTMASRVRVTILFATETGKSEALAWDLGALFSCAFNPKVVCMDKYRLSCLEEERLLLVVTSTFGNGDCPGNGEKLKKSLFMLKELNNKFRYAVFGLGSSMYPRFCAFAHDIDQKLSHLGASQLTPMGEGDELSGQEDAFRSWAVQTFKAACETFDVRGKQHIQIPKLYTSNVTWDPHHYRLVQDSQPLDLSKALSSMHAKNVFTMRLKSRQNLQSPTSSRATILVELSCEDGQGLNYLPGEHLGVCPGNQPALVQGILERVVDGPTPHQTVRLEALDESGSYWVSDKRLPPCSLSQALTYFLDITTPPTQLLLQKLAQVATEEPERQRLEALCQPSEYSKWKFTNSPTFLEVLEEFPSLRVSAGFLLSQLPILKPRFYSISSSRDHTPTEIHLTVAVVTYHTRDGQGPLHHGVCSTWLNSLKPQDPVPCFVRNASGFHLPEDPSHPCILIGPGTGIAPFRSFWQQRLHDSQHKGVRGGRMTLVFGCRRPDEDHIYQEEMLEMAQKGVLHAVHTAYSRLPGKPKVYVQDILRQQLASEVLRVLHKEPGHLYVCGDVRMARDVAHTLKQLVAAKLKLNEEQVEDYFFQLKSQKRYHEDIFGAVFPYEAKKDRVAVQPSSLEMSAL
# Test details: The concentration required for inhibition of Human inducible nitric oxide synthase (iNOS) isoform

# Smiles str, IC50
rows = [
    ("CC(=N)NCCCC[C@H](N)C(=O)O", "5.9 µM"),
]

====

# Study system: Nitric oxide synthase 1 (Homo sapiens)
# Sequence (P29475 whole entry): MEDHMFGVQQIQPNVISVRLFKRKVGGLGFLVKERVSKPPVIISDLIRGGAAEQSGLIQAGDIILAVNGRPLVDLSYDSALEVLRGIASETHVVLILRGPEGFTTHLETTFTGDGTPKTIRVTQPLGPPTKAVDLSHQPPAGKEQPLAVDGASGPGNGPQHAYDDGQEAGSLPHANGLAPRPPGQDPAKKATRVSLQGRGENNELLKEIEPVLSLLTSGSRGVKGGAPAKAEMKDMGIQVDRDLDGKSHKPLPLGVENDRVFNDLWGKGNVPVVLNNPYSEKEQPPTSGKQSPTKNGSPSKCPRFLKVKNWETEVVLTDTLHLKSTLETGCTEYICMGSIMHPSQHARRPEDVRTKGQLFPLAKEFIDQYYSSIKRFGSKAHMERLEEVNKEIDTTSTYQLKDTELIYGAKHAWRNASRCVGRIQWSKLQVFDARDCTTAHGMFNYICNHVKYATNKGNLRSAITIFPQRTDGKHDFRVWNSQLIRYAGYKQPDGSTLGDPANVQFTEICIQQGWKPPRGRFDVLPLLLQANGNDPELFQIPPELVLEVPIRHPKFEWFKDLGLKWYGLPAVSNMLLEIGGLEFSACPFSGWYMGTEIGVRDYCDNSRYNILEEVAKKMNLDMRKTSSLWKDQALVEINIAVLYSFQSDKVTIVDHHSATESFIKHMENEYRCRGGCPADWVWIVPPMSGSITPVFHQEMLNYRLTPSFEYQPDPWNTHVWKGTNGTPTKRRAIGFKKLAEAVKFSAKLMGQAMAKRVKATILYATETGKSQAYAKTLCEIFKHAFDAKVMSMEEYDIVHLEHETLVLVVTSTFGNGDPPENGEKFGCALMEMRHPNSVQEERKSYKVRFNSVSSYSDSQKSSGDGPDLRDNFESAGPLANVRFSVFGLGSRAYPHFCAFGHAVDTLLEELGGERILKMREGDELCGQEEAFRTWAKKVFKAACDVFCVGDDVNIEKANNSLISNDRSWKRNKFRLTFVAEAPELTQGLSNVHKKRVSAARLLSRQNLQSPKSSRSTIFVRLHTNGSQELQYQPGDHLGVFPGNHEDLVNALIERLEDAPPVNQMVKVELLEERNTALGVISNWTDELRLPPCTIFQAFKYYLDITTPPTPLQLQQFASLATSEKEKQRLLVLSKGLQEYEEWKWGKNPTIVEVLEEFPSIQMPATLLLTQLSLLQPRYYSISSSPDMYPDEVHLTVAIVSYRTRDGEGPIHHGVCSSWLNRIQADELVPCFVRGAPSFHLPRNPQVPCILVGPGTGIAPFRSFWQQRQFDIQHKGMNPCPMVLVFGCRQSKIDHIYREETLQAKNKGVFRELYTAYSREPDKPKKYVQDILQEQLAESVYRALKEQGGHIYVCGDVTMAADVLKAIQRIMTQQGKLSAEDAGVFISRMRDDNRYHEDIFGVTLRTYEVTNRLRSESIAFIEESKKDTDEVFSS
pIC50: −log10 of the molar value.

# Smiles str, pIC50
rows = [
    ("CC(=N)NCCCC[C@H](N)C(=O)Nc1nnn[nH]1", "< 2.73"),
]

====

# Study system: Nitric oxide synthase, inducible (Homo sapiens)
# Test details: The concentration required for inhibition of Human inducible nitric oxide synthase (iNOS) isoform, expressed as IC50.

# Smiles str, IC50
records = [
    ("CC(=N)NCCCC[C@H](N)C(=O)Nc1nnn[nH]1", "> 1850 µM"),
]
